# ASSAY PROTOCOL: Pharmacokinetic study in male SD rats (intravenous, oral, oral co-administration with verapamil)
# Type: in vivo, Sprague–Dawley rats
# RUN CONDITIONS: male, Sprague-Dawley, rat, plasma, po, 10 mg/kg, oral mono-administration 10 mg/kg, n = 5; read-out: MRT0–∞
# Method: The animal experiment was approved by the Experimental Animal Ethics Committee of Shanghai University of Traditional Chinese Medicine (the Ethics Number: PZSHUTCM201016015). […] The plasma drug concentration of the PF was quantitated, according to the calibration curve, by the ratio of the analyte-to-IS peak areas obtained for each sample. […] Subsequently, the main pharmacokinetic parameters were analyzed by an independent sample t-test. […]
REPORTED ENDPOINT: MRT inf (h)
# number only, unit h dropped from output

Exercise: Entry under review: "C[C@@]12C[C@@]3(O)O[C@@H](O1)[C@]1(COC(=O)c4ccccc4)[C@H]3C[C@@]12O[C@@H]1O[C@H](CO)[C@@H](O)[C@H](O)[C@H]1O" . Reported MRT inf?
Key: 1

----------
# ASSAY PROTOCOL: Pharmacokinetic study in male SD rats (intravenous, oral, oral co-administration with verapamil)
# Format: in vivo, Sprague–Dawley rats
# RUN CONDITIONS: male, Sprague-Dawley, rat, plasma, po, 10 mg/kg, oral mono-administration 10 mg/kg, n = 5
REPORTED ENDPOINT: Cmax (ng/mL)
# number only, unit ng/mL dropped from output

Exercise: Entry under review: C[C@@]12C[C@@]3(O)O[C@@H](O1)[C@]1(COC(=O)c4ccccc4)[C@H]3C[C@@]12O[C@@H]1O[C@H](CO)[C@@H](O)[C@H](O)[C@H]1O [PF, paeoniflorin] . Reported Cmax?
Key: 63.4

----------
# ASSAY PROTOCOL: Pharmacokinetic study in male SD rats (intravenous, oral, oral co-administration with verapamil)
# Assay type: in vivo, Sprague–Dawley rats
# RUN CONDITIONS: male, Sprague-Dawley, rat, plasma, po, 20 mg/kg, oral 20 mg/kg co-administration with verapamil (50 mg/kg), n = 5; read-out: MRT0–∞
REPORTED ENDPOINT: MRT inf (h)
# number only, unit h dropped from output

Exercise: Entry under review: "C[C@@]12C[C@@]3(O)O[C@@H](O1)[C@]1(COC(=O)c4ccccc4)[C@H]3C[C@@]12O[C@@H]1O[C@H](CO)[C@@H](O)[C@H](O)[C@H]1O" . Reported MRT inf?
Key: 1.5

----------
# ASSAY PROTOCOL: Pharmacokinetic study in male SD rats (intravenous, oral, oral co-administration with verapamil)
# Format: in vivo, Sprague–Dawley rats
# RUN CONDITIONS: male, Sprague-Dawley, rat, plasma, po, 10 mg/kg, oral mono-administration 10 mg/kg, n = 5
REPORTED ENDPOINT: Tmax (min)
# number only, unit min dropped from output

Exercise: Entry under review: "C[C@@]12C[C@@]3(O)O[C@@H](O1)[C@]1(COC(=O)c4ccccc4)[C@H]3C[C@@]12O[C@@H]1O[C@H](CO)[C@@H](O)[C@H](O)[C@H]1O" . Reported Tmax?
Key: 30

----------
# ASSAY PROTOCOL: Pharmacokinetic study in male SD rats (intravenous, oral, oral co-administration with verapamil)
# Format: in vivo, Sprague–Dawley rats
# RUN CONDITIONS: male, Sprague-Dawley, rat, plasma, po, 20 mg/kg, oral 20 mg/kg co-administration with verapamil (50 mg/kg), n = 5
REPORTED ENDPOINT: Tmax (min)
# number only, unit min dropped from output

Exercise: Entry under review: C[C@@]12C[C@@]3(O)O[C@@H](O1)[C@]1(COC(=O)c4ccccc4)[C@H]3C[C@@]12O[C@@H]1O[C@H](CO)[C@@H](O)[C@H](O)[C@H]1O [PF, paeoniflorin] . Reported Tmax?
Key: 42

----------
# ASSAY PROTOCOL: Pharmacokinetic study in male SD rats (intravenous, oral, oral co-administration with verapamil)
# Format: in vivo, Sprague–Dawley rats
# RUN CONDITIONS: male, Sprague-Dawley, rat, plasma, po, 10 mg/kg, oral mono-administration 10 mg/kg, n = 5
REPORTED ENDPOINT: CL/F (mL/min/kg)
# number only, unit mL/min/kg dropped from output

Exercise: Entry under review: "C[C@@]12C[C@@]3(O)O[C@@H](O1)[C@]1(COC(=O)c4ccccc4)[C@H]3C[C@@]12O[C@@H]1O[C@H](CO)[C@@H](O)[C@H](O)[C@H]1O" . Reported CL/F?
Key: 2050

----------
# ASSAY PROTOCOL: Pharmacokinetic study in male SD rats (intravenous, oral, oral co-administration with verapamil)
# Assay type: in vivo, Sprague–Dawley rats
# RUN CONDITIONS: male, Sprague-Dawley, rat, plasma, po, 20 mg/kg, oral mono-administration 20 mg/kg, n = 5
REPORTED ENDPOINT: Tmax (min)
# number only, unit min dropped from output

Exercise: Entry under review: C[C@@]12C[C@@]3(O)O[C@@H](O1)[C@]1(COC(=O)c4ccccc4)[C@H]3C[C@@]12O[C@@H]1O[C@H](CO)[C@@H](O)[C@H](O)[C@H]1O [PF, paeoniflorin] . Reported Tmax?
Key: 42

----------
# ASSAY PROTOCOL: Pharmacokinetic study in male SD rats (intravenous, oral, oral co-administration with verapamil)
# Type: in vivo, Sprague–Dawley rats
# RUN CONDITIONS: male, Sprague-Dawley, rat, plasma, po, 20 mg/kg, oral mono-administration 20 mg/kg, n = 5
REPORTED ENDPOINT: AUC(0-t) (ng·h/mL)
# number only, unit ng·h/mL dropped from output

Exercise: Entry under review: "C[C@@]12C[C@@]3(O)O[C@@H](O1)[C@]1(COC(=O)c4ccccc4)[C@H]3C[C@@]12O[C@@H]1O[C@H](CO)[C@@H](O)[C@H](O)[C@H]1O" . Reported AUC(0-t)?
Key: 149

----------
# ASSAY PROTOCOL: Pharmacokinetic study in male SD rats (intravenous, oral, oral co-administration with verapamil)
# Assay type: in vivo, Sprague–Dawley rats
# RUN CONDITIONS: male, Sprague-Dawley, rat, plasma; intravenous 2 mg/kg, n = 5
REPORTED ENDPOINT: C0
The reply should consist of the numeric value with the unit placed after it.

Exercise: Entry under review: "C[C@@]12C[C@@]3(O)O[C@@H](O1)[C@]1(COC(=O)c4ccccc4)[C@H]3C[C@@]12O[C@@H]1O[C@H](CO)[C@@H](O)[C@H](O)[C@H]1O" . Reported C0?
Key: 11200 ng/mL

----------
# ASSAY PROTOCOL: Pharmacokinetic study in male SD rats (intravenous, oral, oral co-administration with verapamil)
# Type: in vivo, Sprague–Dawley rats
# RUN CONDITIONS: male, Sprague-Dawley, rat, plasma, iv, 2 mg/kg, intravenous 2 mg/kg, n = 5
REPORTED ENDPOINT: AUC(0-t) (ng·h/mL)
# number only, unit ng·h/mL dropped from output

Exercise: Entry under review: C[C@@]12C[C@@]3(O)O[C@@H](O1)[C@]1(COC(=O)c4ccccc4)[C@H]3C[C@@]12O[C@@H]1O[C@H](CO)[C@@H](O)[C@H](O)[C@H]1O [PF, paeoniflorin] . Reported AUC(0-t)?
Key: 2400

----------
# ASSAY PROTOCOL: Pharmacokinetic study in male SD rats (intravenous, oral, oral co-administration with verapamil)
# Format: in vivo, Sprague–Dawley rats
# RUN CONDITIONS: male, Sprague-Dawley, rat, plasma, iv, 2 mg/kg, intravenous 2 mg/kg, n = 5
REPORTED ENDPOINT: half-life (min)
# number only, unit min dropped from output

Exercise: Entry under review: "C[C@@]12C[C@@]3(O)O[C@@H](O1)[C@]1(COC(=O)c4ccccc4)[C@H]3C[C@@]12O[C@@H]1O[C@H](CO)[C@@H](O)[C@H](O)[C@H]1O" . Reported half-life?
Key: 54

----------
# ASSAY PROTOCOL: Pharmacokinetic study in male SD rats (intravenous, oral, oral co-administration with verapamil)
# Format: in vivo, Sprague–Dawley rats
# RUN CONDITIONS: male, Sprague-Dawley, rat, plasma, po, 20 mg/kg, oral mono-administration 20 mg/kg, n = 5; read-out: MRT0–∞
REPORTED ENDPOINT: MRT inf (h)
# number only, unit h dropped from output

Exercise: Entry under review: C[C@@]12C[C@@]3(O)O[C@@H](O1)[C@]1(COC(=O)c4ccccc4)[C@H]3C[C@@]12O[C@@H]1O[C@H](CO)[C@@H](O)[C@H](O)[C@H]1O [PF, paeoniflorin] . Reported MRT inf?
Key: 1.2

----------
# ASSAY PROTOCOL: Pharmacokinetic study in male SD rats (intravenous, oral, oral co-administration with verapamil)
# Assay type: in vivo, Sprague–Dawley rats
# RUN CONDITIONS: male, Sprague-Dawley, rat, plasma, po, 20 mg/kg, oral mono-administration 20 mg/kg, n = 5
REPORTED ENDPOINT: Cmax (ng/mL)
# number only, unit ng/mL dropped from output

Exercise: Entry under review: C[C@@]12C[C@@]3(O)O[C@@H](O1)[C@]1(COC(=O)c4ccccc4)[C@H]3C[C@@]12O[C@@H]1O[C@H](CO)[C@@H](O)[C@H](O)[C@H]1O [PF, paeoniflorin] . Reported Cmax?
Key: 100

Provenance of the data: paper PMC9737983
